Hello, the source for this data is a melting point compilation (Tetko et al.; mined from patent text by program, amines drawn as free bases though some values may be those of a salt), in case you need it.

property label: melting point

- c1ccc2c(CCc3ccncc3)c[nH]c2c1: 154 to 158 °C
- COc1ccc(C(=O)Nc2cc(NC(=O)c3ccc(O)cc3)ccc2C)cc1OC: 258 to 259 °C
- COc1ccccc1-c1ccn(C(C)C(=O)N(C)C)n1 (stereo not given): 92 to 94 °C
- CCOc1ccc(-c2ccc(Cl)cc2)cc1C=O: 88 to 90 °C
- CCN1C(=O)C(C)(C)C(=O)N(C)c2cc(CN(CCn3cc(C)c4occc4c3=O)Cc3ncccc3N)ccc21: 188 to 192 °C

INPUT: melting point for CCC(Oc1ccccc1)C(=O)NCCO[N+](=O)[O-] (stereo not given) ?
OUTPUT: 59 to 61 °C

INPUT: melting point for CCOc1cc2cc(C3=NNC(=O)CC3C)sc2cc1OCC (stereo not given) ?
OUTPUT: 170 to 171 °C

INPUT: melting point for CC(C)=CCC/C(C)=C/CC/C(C)=C/CC/C(C)=C/CON1C(=O)c2ccccc2C1=O ?
OUTPUT: 40 to 41 °C

INPUT: melting point for COC(=O)C(C)(C)Nc1nc(Cl)ccc1[N+](=O)[O-] ?
OUTPUT: 96 to 97 °C

INPUT: melting point for Cc1nc(Cn2nc(-c3c(-c4ccccc4)nn4ccccc34)ccc2=O)cs1 ?
OUTPUT: 196 to 198 °C

* * *

property label: melting point (°C)

* COc1ccc2cc(-c3nc(-c4ccncc4)no3)c(=O)oc2c1 | 300
* C=CCN1C(=O)COc2cc(Br)c(F)cc21 | 92

[a] Cn1nccc1CCS(=O)(=O)Cc1ccc(OCc2coc(C=Cc3ccc(C(F)(F)F)cc3)n2)cc1
[b] CCCCOc1cc(/C=C(\OCC)C(=O)O)ccc1OCCc1ccc(OS(C)(=O)=O)c(OC)c1
INPUT: Determine, for a and b , which has the greater value of melting point. Please respond with the label that marks your chosen entry.
OUTPUT: a

* * *

property label: melting point

* CCCCCNc1ncnc2c(C(C)C)n[nH]c12 | 73 to 75 °C
* CCOC(=O)CCC(=O)Nc1cccc(/C=C/c2nc(C3CCC3)cs2)c1 | 98 to 100 °C
* O=C(O)CCc1ccc(OCCc2ccccc2)cc1 | 91 to 92 °C
* C=CCN(C)c1ccc(C(C#N)=C(C#N)C#N)cc1 | 155 °C
* CCCCCCN(C[C@@H]1CCCC[C@H]1CN(CCCCCC)C(=O)Nc1ccc(N(C)C)cc1)C(=O)Nc1ccc(N(C)C)cc1 (relative stereo) | 112 to 117 °C

INPUT: melting point for COc1ccc(-c2cccc(O)c2)cc1 ?
OUTPUT: 76.5 to 78 °C

INPUT: melting point for O=C1CN(Cc2ccccc2)c2cc(Br)ccc2N1 ?
OUTPUT: 174 to 176 °C

* * *

Parameter: melting point. Scope: all listed entries.

* CC(=O)Nc1ccccc1N(CC(=O)OC(C)(C)C)C(=O)CNC(=O)Nc1cccc(C)c1 | 185 °C
* CC(=O)C1CCC2C3CCC4CC(OC(=O)C(F)(F)F)CCC4(C)C3C(=O)CC12C (centres undefined) | 107 to 108 °C
* C=C1c2ccccc2C(=O)N1c1ccncc1 | 173 to 174 °C
* CCOC(=O)Cc1ccc(NC(=O)C(COc2ccccc2Cl)NS(=O)(=O)c2ccc(Cl)cc2)cc1 (racemic) | 141 to 142 °C

INPUT: melting point for COC(=O)c1cc(C)c(OCCNC(=O)C2Cc3ccccc3N2S(=O)(=O)c2ccc(-c3cccc(C(F)(F)F)c3)cc2)c(C)c1 (centres undefined) ?
OUTPUT: 81 to 83 °C

INPUT: melting point for CC(=O)NCc1ccsc1 ?
OUTPUT: 46 to 47 °C

INPUT: melting point for C=CCOc1ccc2ccc(OCC(=O)OC)cc2c1 ?
OUTPUT: 69 to 70 °C

INPUT: melting point for O=C1N(Cc2ncc(F)cc2F)c2ccccc2C12COc1cc3c(cc12)OCCO3 (centres undefined) ?
OUTPUT: 220 to 222 °C

INPUT: melting point for N#CCc1ccc(CCOc2ccc(CC3SC(=N)NC3=O)cc2)nc1 (centres undefined) ?
OUTPUT: 211 to 212 °C

* * *

property label: melting point

Answered cases to consult:
- Cc1ccc([N+](=O)[O-])cc1/C=C/c1nc(C(C)C)cs1: 87 to 88 °C
- OCc1ccccc1-c1ccc(CBr)cc1: 101 to 106 °C
- COCCn1cc2c(C3C(=O)Nc4ccc(Br)cc43)nc(NCCN3CCOCC3)nc2n1 (stereo unspecified): > 300 °C

INPUT: melting point for COc1nc(N2CCCCC2)nc(OC)c1O ?
OUTPUT: 109 °C

INPUT: melting point for CCCc1c2c(c(NCC)c3c(=O)cc(C(=O)OCC)oc13)CCCC2 ?
OUTPUT: 91.5 °C

INPUT: melting point for C#CCONC(=O)c1nc(-c2ccc(Cl)c(OC)c2F)cc(N)c1Cl ?
OUTPUT: 180 to 183 °C

* * *

Parameter: melting point. Scope: all listed entries.

• COc1cccc(C(=O)N(C)Cc2cccc(-c3ccc(CC4SC(=O)NC4=O)cc3)c2)c1 (stereo not given) = 173 °C
• CCCc1nc2c(N)nc(C)c(C)c2n1CCCC(C)=NOC = 144 to 146 °C
• Nc1cc(C(=O)N(Cc2ccccc2)Cc2ccccc2)ccc1OCc1ccccc1 = 81 °C
• COc1ccc(C(=O)Nc2ccccc2)cc1NS(=O)(=O)c1ccc([N+](=O)[O-])cc1 = 224 to 227 °C
• CCCC(=O)Nc1c(C)c(C)c2c(c1C)CC(C)(C)O2 = 136 to 138 °C
• CCOC(=O)c1c(C)nc2cc(C)ccn12 = 59 to 61 °C
• CC(C)(C)OC(=O)n1ccc(-c2ccc(F)cc2)c1-c1ccc(S(C)(=O)=O)cc1 = 262 °C
• Cc1ccc(-c2nc(C(N)=O)cs2)cc1 = 100 to 102 °C
• CCOC(=O)CCc1cn(-c2ccc(C(F)(F)F)cn2)nc1C = 50 to 51 °C
• Nc1cc(Cl)c([N+](=O)[O-])cc1OC(=O)c1ccccc1 = 199 to 201 °C

INPUT: melting point for CCCn1cc(C2(c3cccc(Br)c3)N=C(N)N(C)C2=O)cc1C(=O)CC (stereo not given) ?
OUTPUT: 260 °C

INPUT: melting point for Nc1cc(C(=O)CCC(=O)O)ccc1Br ?
OUTPUT: 169 to 171 °C

INPUT: melting point for CNc1ccc(Cl)cc1-c1cc2ccccc2[nH]1 ?
OUTPUT: 123 to 126 °C

INPUT: melting point for COCc1c(S(C)(=O)=O)ccc(C(=O)C2C(=O)CCCC2=O)c1C ?
OUTPUT: 192 to 198 °C

INPUT: melting point for CN(CCC12CC3CC(CC(C3)C1)C2)C(=O)NCCCc1ccncc1 ?
OUTPUT: 99 to 109 °C

INPUT: melting point for O=C(O)[C@@H]1CCC(=O)N1C(=O)CCC1CCCC1 ?
OUTPUT: 135 to 138 °C

INPUT: melting point for CC(OC(=O)c1ccccc1)P(=O)(O)OC(CCCCN)C(=O)N1CCCC1C(=O)O (stereo not given) ?
OUTPUT: 186 to 192 °C

INPUT: melting point for Cc1cccc(NC(=O)NCC(=O)N(c2ccccc2)C(C)C(=O)N(C)c2ccccc2)c1 (racemic) ?
OUTPUT: 214 °C

INPUT: melting point for O=C(O)c1cn(-c2cccc(OC(F)(F)F)c2)cn1 ?
OUTPUT: 173 to 175 °C

INPUT: melting point for Cc1ccc(C(=O)Nc2nc(-c3ccccc3)c(-c3nc4ccccc4c(=O)n3-c3ccccc3)s2)cc1 ?
OUTPUT: > 275 °C

* * *

Parameter: melting point. Scope: all listed entries.

• O=c1ccc(C(F)(F)F)cn1-c1ccc(NCCCl)cc1Cl = 160 to 162 °C
• COc1ccc(-c2csc(Nc3cc4ccccc4cn3)n2)cc1OC = 200 to 203 °C
• CN1CCN(C2=Nc3cscc3C(=CC#N)c3cscc32)CC1 = 148 to 151 °C
• COC(=O)C1C(=O)Nc2ccccc2CC1c1ccc(OC)cc1 (stereo not given) = 217 to 219 °C

Continue with the molecule presented below.
INPUT: melting point for CCn1c(=O)c2c(N3CCN(C)CC3)cc(Cl)cc2n(Cc2ccccc2)c1=O ?
OUTPUT: 155 to 159 °C

* * *

Parameter: melting point. Scope: all listed entries.

* CCNc1nc2ccc(CCc3ccccn3)cc2o1 | 57 to 59 °C
* CN(C)C(=O)c1cc(O)ccc1C=Cc1ccc(O)cc1 | 184 to 188 °C
* CS(=O)(=O)N(CCc1ccc(Cl)cc1)Cc1ccncc1 | 96 to 99 °C
* COc1ccc2cccc(C(CO)CNC(=O)C(F)(F)F)c2c1 (stereo unspecified) | 138 to 140 °C
* Nc1ccccc1CNC(=O)C1Cc2ccccc2N1S(=O)(=O)c1ccc(-c2ccc(F)cc2Cl)cc1 (stereo unspecified) | 85 to 90 °C

INPUT: melting point for CC(=O)NS(=O)(=O)c1ccc(-n2sc3ccccc3c2=O)cc1 ?
OUTPUT: 254 to 255 °C

INPUT: melting point for CCn1cc([N+](=O)[O-])cn1 ?
OUTPUT: 54 to 55 °C

INPUT: melting point for O=c1sc2cc(C(F)(F)F)cc([N+](=O)[O-])c2s1 ?
OUTPUT: 110 to 111 °C

INPUT: melting point for O=C(O)CCCCCc1nc2ccccc2s1 ?
OUTPUT: 71 to 72 °C

INPUT: melting point for C[C@H](CC#CC(C)(C)O)[C@H]1CCC[C@H]2[C@@H](O)CCC[C@]12C ?
OUTPUT: 134 to 135 °C

INPUT: melting point for O=C(O)c1cc2cc(F)c(F)cc2[nH]1 ?
OUTPUT: 279 to 280 °C
